B1: GA-binding protein alpha chain, residues 172 to 250; numbered along this chain, Q06546 (parent)
chain: GYRKEQERLGIPYDPIQWSTDQVLHWVVWVMKEFSMTDIDLTTLNISGRELCSLNQEDFFQRVPRGEILWSHLELLRKY

# Variants of: B1
# EXPERIMENT DESCRIPTION: abundance fitness (aPCA) (normalised: wild type 0, dead -1); higher = more abundant; growth selection in yeast, the domain comes from the species named
# EXPERIMENTAL CONDITIONS: Homo sapiens
Known abundance fitness of a selection of variants
REPORTED PROPERTY: abundance fitness

- L9G: -0.373
- V23T: -0.058
- M31F: -0.09
- W26N: -0.894
- I68G: -0.087
- D14L: -0.766
- E7G: -0.315
- R62T: -0.194
- M36N: -0.189
- Q17L: -0.01
- P12V: -0.724
- V63T: -0.172
